Test system: Escherichia coli DC2
experimentSummary: In Vitro Anti-Bacterial Activity Test (MIC, agar dilution)
Assay type: cell-based
conditionsUsed: Escherichia coli, DC2, 18 h
Counter-ions that a name gives are not always drawn.
propertyName: MIC (µg/mL)
Write the answer as a number in µg/mL, unit excluded.

Consider the following illustrative entries.
CCOC(=O)C(C(=O)OCC)C(=O)c1cn(C2CC2)c2c(OC)c(N3CC[C@H](NC)C3)c(F)cc2c1=O [Example 59, hydrochloride] :: 0.098
CCOC(=O)C(C(=O)OCC)C(=O)c1cn(C2CC2)c2c(Cl)c(N3CC[C@@H](NC)C3)c(F)cc2c1=O [Example 55, hydrochloride] :: 0.098
Cc1c(F)c(N2CCNC(C)C2)cc2c1c(=O)c(C(=O)C[N+](=O)[O-])cn2C1CC1 (stereo not drawn) [Example 51, hydrochloride] :: 0.195
CN[C@H]1CCN(c2c(F)cc3c(=O)c(C(=O)C[N+](=O)[O-])cn(C4CC4)c3c2OC)C1 [Example 65, hydrochloride] :: 0.195
CC(=O)C(C(C)=O)C(=O)c1cn(C2CC2)c2c(Cl)c(N3CCC(N)C3)c(F)cc2c1=O (stereo not drawn) [Example 48, hydrochloride] :: 0.098

Next item in the queue.
Exercise: Provide MIC, tested on Escherichia coli DC2, for N[C@@H]1CCN(c2c(F)cc3c(=O)c(C(=O)C[N+](=O)[O-])cn(C4CC4)c3c2Cl)C1 [Example 12, hydrochloride] .
Key: 0.049

---

Tested on: Klebsiella oxytoca 1082E
experimentSummary: In Vitro Anti-Bacterial Activity Test (MIC, agar dilution)
Assay type: cell-based
conditionsUsed: Klebsiella oxytoca 1082E; Muller-Hinton agar, 37° C., 18 hours; read-out: MIC
Structures can show the parent of a compound that is named as a salt.
propertyName: MIC (ng/mL)
Write the answer as a number in ng/mL, unit excluded.

Consider the following illustrative entries.
CCOC(=O)C(C(=O)OCC)C(=O)c1cn(C2CC2)c2c(Cl)c(N3CC[C@H](NC)C3)c(F)cc2c1=O [Example 56, hydrochloride] :: 13
CCOC(=O)C(C(=O)OCC)C(=O)c1cn(C2CC2)c2c(Cl)c(N3CC=C(CNC)C3)c(F)cc2c1=O [Example 28, hydrochloride] :: 7
N#CCC(=O)c1cn(C2CC2)c2c(Cl)c(N3CCC(N)C3)c(F)cc2c1=O (centres unmarked) [Example 42, hydrochloride] :: 98
CNC1CCN(c2c(F)cc3c(=O)c(C(=O)C[N+](=O)[O-])cn(C4CC4)c3c2Cl)C1 (centres unmarked) [Example 63, hydrochloride] :: 7
CCOC(=O)C(C(=O)OCC)C(=O)c1cn(C2CC2)c2cc(N3CCNCC3)c(F)cc2c1=O [Example 18, hydrochloride] :: 4
CCOC(=O)CC(=O)c1cn(C2CC2)c2c(F)c(N3CCC(N)C3)c(F)cc2c1=O (centres unmarked) [Example 21, hydrochloride] :: 4

Exercise: Complete the entry with MIC for CC1CN(c2cc3c(cc2F)c(=O)c(C(=O)C[N+](=O)[O-])cn3-c2ccc(F)cc2F)CCN1 (centres unmarked) [Example 10, hydrochloride]
Key: 25

Exercise: Complete the entry with MIC for CCOC(=O)C(C#N)C(=O)c1cn(C2CC2)c2c(Cl)c(N3CC4=C(CNC4)C3)c(F)cc2c1=O (centres unmarked) [Example 41, hydrochloride]
Key: 49

Exercise: Complete the entry with MIC for Cc1c(F)c(N2CCNC(C)C2)cc2c1c(=O)c(C(=O)C[N+](=O)[O-])cn2C1CC1 (centres unmarked) [Example 51, hydrochloride]
Key: 13

---

experimentSummary: Acute Toxicity Test
conditionsUsed: mouse, in vivo; ICR mice; oral; 14th day; read-out: Acute Toxicity LD50, Oral Administration
Description: Test compounds were administered to ICR mice weighing 20 to 25 g. On 14th day, LD50 was calculated from the number of survived mice by the probit analysis.
Where a name gives a salt, the structure may show the parent alone.
propertyName: LD50 at 336 h (mg/kg)
Write the answer as a number in mg/kg, unit excluded.

Consider the following illustrative entries.
N[C@H]1CCN(c2c(F)cc3c(=O)c(C(=O)C[N+](=O)[O-])cn(C4CC4)c3c2Cl)C1 [Example 13, hydrochloride] :: 3800
CNCC1=CCN(c2c(F)cc3c(=O)c(C(=O)C[N+](=O)[O-])cn(C4CC4)c3c2Cl)C1 [Example 16, hydrochloride] :: 3800

Exercise: Complete the entry with LD50 at 336 h for O=C(C[N+](=O)[O-])c1cn(C2CC2)c2c(Cl)c(N3CC4=C(CNC4)C3)c(F)cc2c1=O [Example 34, hydrochloride]
Key: 4000

---

Quick list: MIC per entry.
Test system: Klebsiella oxytoca 1082E
experimentSummary: In Vitro Anti-Bacterial Activity Test (MIC, agar dilution)
Assay type: cell-based
conditionsUsed: Klebsiella oxytoca 1082E; Muller-Hinton agar, 37° C., 18 hours; read-out: MIC
Structures can show the parent of a compound that is named as a salt.
Write the answer as a number in µg/mL, unit excluded.

Exercise: Complete the entry with MIC for CCOC(=O)C(C(=O)OCC)C(=O)c1cn(C2CC2)c2c(Cl)c(N3CC4=C(CNC4)C3)c(F)cc2c1=O [Example 36, hydrochloride]
Key: 0.007

Exercise: Complete the entry with MIC for CNC1CCN(c2c(F)cc3c(=O)c(C(=O)C[N+](=O)[O-])cn(C4CC4)c3c2OC)C1 (centres unmarked) [Example 66, hydrochloride]
Key: 0.098

Exercise: Complete the entry with MIC for CCOC(=O)C(C(=O)OCC)C(=O)c1cn(C2CC2)c2c(OC)c(N3CC[C@@H](NC)C3)c(F)cc2c1=O [Example 58, hydrochloride]
Key: 0.049

Exercise: Complete the entry with MIC for N#CCC(=O)c1cn(C2CC2)c2c(Cl)c(N3CC4=C(CNC4)C3)c(F)cc2c1=O [Example 44, hydrochloride]
Key: 0.195

Exercise: Complete the entry with MIC for CN[C@@H]1CCN(c2c(F)cc3c(=O)c(C(=O)C[N+](=O)[O-])cn(C4CC4)c3c2Cl)C1 [Example 61, hydrochloride]
Key: 0.004

Exercise: Complete the entry with MIC for NC1CCN(c2c(F)cc3c(=O)c(C(=O)CC(=O)C(F)(F)F)cn(C4CC4)c3c2Cl)C1 (centres unmarked) [Example 38, hydrochloride]
Key: 0.025

Exercise: Complete the entry with MIC for CCOC(=O)C(C#N)C(=O)c1cn(C2CC2)c2c(Cl)c(N3CC=C(CNC)C3)c(F)cc2c1=O (centres unmarked) [Example 40, hydrochloride]
Key: 0.049

---

Quick list: MIC per entry.
Tested on: Klebsiella aerogenes 1522E
experimentSummary: In Vitro Anti-Bacterial Activity Test (MIC, agar dilution)
Type: cell-based
conditionsUsed: Klebsiella aerogenes, 1522E, 18 h, Klebsiella aerogenes 1522E; Muller-Hinton agar, 37° C., 18 hours; read-out: MIC
Where a name gives a salt, the structure may show the parent alone.
Write the answer as a number in µg/mL, unit excluded.

Consider the following illustrative entries.
CS(=O)(=O)CC(=O)c1cn(C2CC2)c2c(Cl)c(N3CC4=C(CNC4)C3)c(F)cc2c1=O [Example 47, hydrochloride] :: 0.049
Cc1c(N2CCC(N)C2)c(F)cc2c(=O)c(C(=O)C[N+](=O)[O-])cn(C3CC3)c12 (stereo not shown) [Example 50, hydrochloride] :: 0.195
CCOC(=O)CC(=O)c1cn(C2CC2)c2c(Cl)c(N3CC=C(CNC)C3)c(F)cc2c1=O [Example 29, hydrochloride] :: 0.013

Exercise: Complete the entry with MIC for N#CCC(=O)c1cn(C2CC2)c2c(Cl)c(N3CCC(N)C3)c(F)cc2c1=O (stereo not shown) [Example 42, hydrochloride]
Key: 1.56

Exercise: Complete the entry with MIC for CNCC1=CCN(c2c(F)cc3c(=O)c(C(=O)C[N+](=O)[O-])cn(C4CC4)c3c2Cl)C1 [Example 16, hydrochloride]
Key: 0.013

Exercise: Complete the entry with MIC for CCOC(=O)CC(=O)c1cn(C2CC2)c2cc(N3CCNCC3)c(F)cc2c1=O [Example 19, hydrochloride]
Key: 0.049

Exercise: Complete the entry with MIC for CCOC(=O)C(C(=O)OCC)C(=O)c1cn(C2CC2)c2c(OC)c(N3CC[C@H](NC)C3)c(F)cc2c1=O [Example 59, hydrochloride]
Key: 0.098

---

Quick list: MIC per entry.
System: Escherichia coli 1507E
experimentSummary: In Vitro Anti-Bacterial Activity Test (MIC, agar dilution)
Assay type: cell-based
conditionsUsed: Escherichia coli, 1507E, 18 h, Muller-Hinton agar, 37° C.
Structures can show the parent of a compound that is named as a salt.
Write the answer as a number in µg/mL, unit excluded.

Exercise: Provide MIC, tested on Escherichia coli 1507E, for CS(=O)(=O)CC(=O)c1cn(C2CC2)c2c(Cl)c(N3CC4=C(CNC4)C3)c(F)cc2c1=O [Example 47, hydrochloride] .
Key: 0.391

Exercise: Provide MIC, tested on Escherichia coli 1507E, for CCOC(=O)CC(=O)c1cn(C2CC2)c2c(Cl)c(N3CC=C(CNC)C3)c(F)cc2c1=O [Example 29, hydrochloride] .
Key: 0.049

Exercise: Provide MIC, tested on Escherichia coli 1507E, for CCOC(=O)C(C(=O)OCC)C(=O)c1cn(C2CC2)c2c(Cl)c(N3CC[C@@H](NC)C3)c(F)cc2c1=O [Example 55, hydrochloride] .
Key: 0.025

Exercise: Provide MIC, tested on Escherichia coli 1507E, for CC1CN(c2c(F)cc3c(=O)c(C(=O)C[N+](=O)[O-])cn(C4CC4)c3c2F)CCN1 (centres unmarked) [Example 7, hydrochloride] .
Key: 0.025

Exercise: Provide MIC, tested on Escherichia coli 1507E, for CCOC(=O)C(C(=O)OCC)C(=O)c1cn(C2CC2)c2c(Cl)c(N3CC=C(CNC)C3)c(F)cc2c1=O [Example 28, hydrochloride] .
Key: 0.013
